// IC50 lookup, one value per entry
biological target: human PD-1 / PD-L1-Ig binding on Jurkat cell line over-expressing human PD-1 (Jurkat-PD-1) (Homo sapiens); construct: expressed in transfected cells; host or cells: Jurkat; assay: Jurkat-PD-1 Cell Binding High-Content Screening Assay (CBA); assay type: cell-based; settings: Jurkat-PD-1 cells, PE-labeled PD-L1-Ig 20 nM final; read-out: Jurkat HPD1_PDL1 IC50
Sequence (Q15116 25-288): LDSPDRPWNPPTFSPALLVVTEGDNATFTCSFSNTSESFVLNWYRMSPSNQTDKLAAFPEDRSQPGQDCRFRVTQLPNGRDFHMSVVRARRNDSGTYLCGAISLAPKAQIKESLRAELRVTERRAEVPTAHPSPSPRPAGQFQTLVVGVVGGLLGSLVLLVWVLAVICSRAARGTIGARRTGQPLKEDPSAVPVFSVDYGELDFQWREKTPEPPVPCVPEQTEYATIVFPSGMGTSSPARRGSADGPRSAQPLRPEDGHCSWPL
Where a SMILES comes first, the peptide text is derived from it. Bridges are numbered along the chain shown (N, C = ends). [ ]: non-standard residue; d: D form. Phg(4-Ph) = N[C@H](C(=O)O)c1ccc(-c2ccccc2)cc1; Bip = N[C@@H](Cc1ccc(-c2ccccc2)cc1)C(=O)O; 3Pal = N[C@@H](Cc1cccnc1)C(=O)O; Ahp(2) = CCCCC[C@H](N)C(=O)O; Orn = NCCC[C@H](N)C(=O)O; Dab = NCC[C@H](N)C(=O)O
Kindly answer with a numeric value in nM, unit omitted.

Consider the worked cases shown below.
compound=CCCC[C@H]1NC(=O)[C@H](CCCN)NC(=O)[C@H](CCCNC(N)=O)NC(=O)[C@H](Cc2ccc(-c3ccccc3)cc2)NC(=O)[C@H](C(C)C)NC(=O)[C@H](Cc2c[nH]c3ccccc23)NC(=O)[C@H](CC(=O)O)NC(=O)[C@H](Cc2ccncc2)NC(=O)[C@H](Cc2ccc(OCC(=O)O)cc2)NC(=O)CSC[C@@H](C(=O)N[C@@H](C)C(N)=O)NC(=O)[C@H]([C@@H](C)O)NC(=O)[C@H](C(C)C)NC(=O)[C@H](CC2CCCCC2)NC(=O)[C@H](CCN)NC1=O measured_result=17
compound="CCC(C)[C@@H]1NC(=O)[C@H](Cc2ccc(-c3ccccc3)cc2)NC(=O)[C@H](C(C)C)NC(=O)[C@H](Cc2c[nH]c3ccccc23)NC(=O)[C@H](CC(=O)O)NC(=O)[C@H](Cc2ccc(-c3cccc(C(=O)O)c3)cc2)NC(=O)[C@H](CN)NC(=O)CSC[C@@H](C(=O)N[C@@H](C)C(N)=O)NC(=O)[C@H]([C@@H](C)O)NC(=O)[C@H](C(C)C)NC(=O)[C@H](CC2CCCCC2)NC(=O)[C@H](CCN)NC(=O)[C@@H](CC(C)C)NC(=O)[C@H](CCCN)NC1=O (some centres unmarked)" measured_result=13.4
compound="CCC(C)[C@@H]1NC(=O)[C@H](Cc2ccc(-c3ccccc3)cc2)NC(=O)[C@H](C(C)C)NC(=O)[C@H](Cc2cccc(C)c2)NC(=O)[C@H](CC(=O)O)NC(=O)[C@H](Cc2ccc(C(=O)O)cc2)NC(=O)[C@H](Cc2ccncc2)NC(=O)CSC[C@@H](C(=O)N[C@@H](CC(N)=O)C(N)=O)NC(=O)[C@H]([C@@H](C)O)NC(=O)[C@H](C(C)C)NC(=O)[C@H](CC2CCCCC2)NC(=O)[C@H](CCN)NC(=O)[C@@H](CC(C)C)NC(=O)[C@H](CCCN)NC1=O (some centres unmarked) [Compound 2299]" measured_result=14.4
compound="CCC(C)[C@@H]1NC(=O)[C@H](Cc2ccc(-c3ccccc3)cc2)NC(=O)[C@H](C(C)C)NC(=O)[C@H](Cc2cccc(C)c2)NC(=O)[C@H](CC(=O)O)NC(=O)[C@H](Cc2ccc(OCC(=O)O)cc2)NC(=O)[C@H](Cc2ccncc2)NC(=O)CSC[C@@H](C(=O)N[C@@H](C)C(N)=O)NC(=O)[C@H](CO)NC(=O)[C@H](C(C)C)NC(=O)[C@H](CC2CCCCC2)NC(=O)[C@H](CCN)NC(=O)[C@@H](CC(C)C)NC(=O)[C@H](CCCN)NC1=O (some centres unmarked)" measured_result=38

**Query** Item CCCCC[C@@H]1NC(=O)[C@H](C(C)C)NC(=O)[C@@H](Cc2ccccc2)NC(=O)[C@H](CC(=O)O)NC(=O)[C@H](CCCNC(=N)N)NC(=O)[C@H](c2ccc(-c3ccccc3)cc2)NC(=O)[C@H](C(C)C)NC(=O)[C@H](Cc2c[nH]c3ccccc23)NC(=O)[C@H](CC(=O)O)NC(=O)[C@H](Cc2ccc(O)cc2)NC(=O)[C@H](Cc2ccccc2)NC(=O)CSC[C@@H](C(=O)NCC(N)=O)NC(=O)[C@H](CO)NC(=O)[C@H](C(C)C)NC1=O [Compound 1000] ({CH2CO}-FYDWV[Phg(4-Ph)]RD[dF]V[Ahp(2)]VSCG-NH2; thioether N-14) : provide IC50
**Result** 251

**Query** Give recorded IC50. `CC(C)C[C@H]1NC(=O)[C@H](CCCN)NC(=O)[C@H](CCCN)NC(=O)[C@H](Cc2ccc(-c3ccccc3)cc2)NC(=O)[C@H](C(C)C)NC(=O)[C@H](Cc2c[nH]c3ccccc23)NC(=O)[C@H](CC(=O)O)NC(=O)[C@H](Cc2ccc(OCC(=O)O)cc2)NC(=O)[C@H](Cc2ccncc2)NC(=O)CSC[C@@H](C(=O)N[C@@H](C)C(N)=O)NC(=O)[C@H]([C@@H](C)O)NC(=O)[C@H](C(C)C)NC(=O)[C@H](CC2CCCCC2)NC(=O)[C@H](CCN)NC1=O`
**Result** 16.5

**Query** Input CC(C)C[C@@H]1NC(=O)[C@H](CCN)NC(=O)[C@@H](CC(C)C)NC(=O)[C@H](CCCN)NC(=O)[C@H](C(C)C)NC(=O)[C@H](Cc2ccc(-c3ccccc3)cc2)NC(=O)[C@H](C(C)C)NC(=O)[C@H](Cc2c[nH]c3ccccc23)NC(=O)[C@H](CC(=O)O)NC(=O)[C@H](Cc2ccc(O)cc2)NC(=O)[C@H](Cc2cccnc2)NC(=O)CSC[C@@H](C(=O)N[C@@H](C)C(N)=O)NC(=O)[C@H]([C@@H](C)O)NC(=O)[C@H](C(C)C)NC1=O [Compound 1050] ({CH2CO}-[3Pal]YDWV[Bip]V[Orn][dL][Dab]LVTCA-NH2; thioether N-14) , output reported IC50.
**Result** 9.9

**Query** Annotate the compound CC(C)C[C@@H]1NC(=O)[C@H](CCN)NC(=O)[C@@H](CC(C)C)NC(=O)[C@H](C(C)C)NC(=O)[C@H](C(C)C)NC(=O)[C@H](Cc2ccc(-c3ccccc3)cc2)NC(=O)[C@H](C(C)C)NC(=O)[C@H](Cc2c[nH]c3ccccc23)NC(=O)[C@H](CC(=O)O)NC(=O)[C@H](Cc2ccc(O)cc2)NC(=O)[C@H](CC(N)=O)NC(=O)CSC[C@@H](C(=O)N[C@@H](C)C(N)=O)NC(=O)[C@H]([C@@H](C)O)NC(=O)[C@H](C(C)C)NC1=O [Compound 1034] ({CH2CO}-NYDWV[Bip]VV[dL][Dab]LVTCA-NH2; thioether N-14) with its measured IC50.
**Result** 99
